Target: Plasma kallikrein (Homo sapiens)
Sequence (P03952 20-390 limits assumed): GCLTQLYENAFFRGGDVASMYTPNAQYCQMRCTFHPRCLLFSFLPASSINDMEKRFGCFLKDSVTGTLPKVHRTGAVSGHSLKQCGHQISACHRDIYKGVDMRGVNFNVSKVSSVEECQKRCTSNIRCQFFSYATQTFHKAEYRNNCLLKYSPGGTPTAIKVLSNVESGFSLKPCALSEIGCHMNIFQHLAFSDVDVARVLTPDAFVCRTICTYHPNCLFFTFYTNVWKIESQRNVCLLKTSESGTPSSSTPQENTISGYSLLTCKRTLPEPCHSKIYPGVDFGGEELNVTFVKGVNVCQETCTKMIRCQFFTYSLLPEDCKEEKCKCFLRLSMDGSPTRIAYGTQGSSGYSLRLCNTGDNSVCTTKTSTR
Sequence (P03952 391-638 limits assumed): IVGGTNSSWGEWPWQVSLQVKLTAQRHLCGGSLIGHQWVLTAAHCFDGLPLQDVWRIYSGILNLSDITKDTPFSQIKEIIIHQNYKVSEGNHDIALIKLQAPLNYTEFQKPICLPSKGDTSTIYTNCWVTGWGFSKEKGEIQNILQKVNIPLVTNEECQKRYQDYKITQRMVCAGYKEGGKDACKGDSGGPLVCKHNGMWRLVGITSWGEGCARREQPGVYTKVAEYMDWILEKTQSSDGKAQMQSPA
Experiment: Inhibitory activity against kallikrein
pIC50: −log10 of the molar value.
experimentalReadout: pIC50

// worked examples, pIC50 included
CN(C)NCc1ccc(C(=O)Nc2ccc(Cl)cc2C(=O)Nc2ccc(Cl)cn2)cc1 = 6.19
CN(C)Cc1ccc(C(=O)Nc2ccc(Cl)cc2C(=O)Nc2ccc(Cl)cn2)cc1 = 6.30
CN1CCN=C1N(C)Cc1ccc(C(=O)Nc2ccc(Cl)cc2C(=O)Nc2ccc(Cl)cn2)cc1 = 6.52
N=C1OCCN1Cc1ccc(C(=O)Nc2ccc(Cl)cc2C(=O)Nc2ccc(Cl)cn2)cc1 = 6.25
CC(=N)N(C)Cc1ccc(C(=O)Nc2ccc(Cl)cc2C(=O)Nc2ccc(Cl)cn2)cc1 = 6.30

(1) CN(Cc1ccc(C(=O)Nc2ccc(Cl)cc2C(=O)Nc2ccc(Cl)cn2)cc1)C(=N)N
(2) C/N=C(/N)N(C)Cc1ccc(C(=O)Nc2ccc(Cl)cc2C(=O)Nc2ccc(Cl)cn2)cc1
(3) N=C1NCCN1Cc1ccc(C(=O)Nc2ccc(Cl)cc2C(=O)Nc2ccc(Cl)cn2)cc1
(4) C[N+](C)(C)Cc1ccc(C(=O)Nc2ccc(Cl)cc2C(=O)Nc2ccc(Cl)cn2)cc1
List the 4 entries from lowest pIC50 to highest pIC50 value. When ranking, write the labels in the order the request describes.
2, 1, 3, 4
(2: 6.10, 1: 6.42, 3: 6.68, 4: 6.89)

----------
Biological target: Vitamin K-dependent protein C (Homo sapiens)
Sequence (P04070 43-197 limits assumed): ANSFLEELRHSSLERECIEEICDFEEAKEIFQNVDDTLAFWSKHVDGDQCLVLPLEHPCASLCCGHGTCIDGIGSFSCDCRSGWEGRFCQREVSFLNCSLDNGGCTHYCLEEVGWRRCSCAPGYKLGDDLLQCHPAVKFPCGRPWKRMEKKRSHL
Sequence (P04070 212-461 limits assumed): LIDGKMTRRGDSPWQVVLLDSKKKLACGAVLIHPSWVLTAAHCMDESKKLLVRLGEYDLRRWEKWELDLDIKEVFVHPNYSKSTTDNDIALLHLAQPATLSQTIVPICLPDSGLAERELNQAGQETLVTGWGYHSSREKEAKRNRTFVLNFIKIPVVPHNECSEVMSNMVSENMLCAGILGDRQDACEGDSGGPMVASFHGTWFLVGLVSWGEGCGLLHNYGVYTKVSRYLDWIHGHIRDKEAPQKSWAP
Assay: Inhibitory activity against activated protein C
pIC50: −log10 of the molar value.
experimentalReadout: pIC50

Consider the reported pIC50 for these molecules:
O=C(Nc1ccc(Cl)cc1C(=O)Nc1ccc(Cl)cn1)c1ccc(C[n+]2ccccc2)cc1 = < 4.96
CC(=N)NCc1ccc(C(=O)Nc2ccc(Cl)cc2C(=O)Nc2ccc(Cl)cn2)cc1 = < 4.96
CN(Cc1ccc(C(=O)Nc2ccc(Cl)cc2C(=O)Nc2ccc(Cl)cn2)cc1)C1=NCCS1 = < 4.96
C[N+](C)(C)Cc1ccc(C(=O)Nc2ccc(Cl)cc2C(=O)Nc2ccc(Cl)cn2)cc1 = < 4.96
CN(C)Cc1ccc(C(=O)Nc2ccc(Cl)cc2C(=O)Nc2ccc(Cl)cn2)cc1 = < 4.96

Output pIC50 of O=C(Nc1ccc(Cl)cc1C(=O)Nc1ccc(Cl)cn1)c1ccc(CN2CCNC2=O)cc1
< 4.96

Give the measured pIC50 for CN(Cc1ccc(C(=O)Nc2ccc(Cl)cc2C(=O)Nc2ccc(Cl)cn2)cc1)C(=N)N
< 4.96

----------
Target: Tissue-type plasminogen activator (Homo sapiens, UniProt P00750)
Sequence (P00750 whole entry): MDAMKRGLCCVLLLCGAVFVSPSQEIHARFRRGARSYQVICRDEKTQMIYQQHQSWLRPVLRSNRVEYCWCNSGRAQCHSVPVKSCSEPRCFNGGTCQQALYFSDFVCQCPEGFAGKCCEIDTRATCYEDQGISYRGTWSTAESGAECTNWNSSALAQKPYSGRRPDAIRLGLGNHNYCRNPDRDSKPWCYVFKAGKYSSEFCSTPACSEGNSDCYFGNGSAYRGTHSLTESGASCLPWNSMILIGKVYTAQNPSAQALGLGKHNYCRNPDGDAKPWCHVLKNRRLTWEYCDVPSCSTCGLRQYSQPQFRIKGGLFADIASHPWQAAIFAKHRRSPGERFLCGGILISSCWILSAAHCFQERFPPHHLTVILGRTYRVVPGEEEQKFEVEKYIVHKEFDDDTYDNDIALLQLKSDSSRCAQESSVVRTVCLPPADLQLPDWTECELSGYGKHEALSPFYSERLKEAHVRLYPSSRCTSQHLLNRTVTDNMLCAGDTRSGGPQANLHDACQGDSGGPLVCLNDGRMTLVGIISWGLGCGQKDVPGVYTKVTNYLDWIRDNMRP
pIC50: −log10 of the molar value.
experimentalReadout: pIC50

Consider the following illustrative entries.
CN(Cc1ccc(C(=O)Nc2ccc(Cl)cc2C(=O)Nc2ccc(Cl)cn2)cc1)C1=NCCO1 = < 4.96
NC1=NCCCCN1Cc1ccc(C(=O)Nc2ccc(Cl)cc2C(=O)Nc2ccc(Cl)cn2)cc1 = < 4.96
N=C(N)NCc1ccc(C(=O)Nc2ccc(Cl)cc2C(=O)Nc2ccc(Cl)cn2)cc1 = < 4.96
O=C(Nc1ccc(Cl)cc1C(=O)Nc1ccc(Cl)cn1)c1ccc(CN2CCC(O)CC2)cc1 = < 4.96
CCN(C)Cc1ccc(C(=O)Nc2ccc(Cl)cc2C(=O)Nc2ccc(Cl)cn2)cc1 = < 4.96

Supply reported pIC50 belonging to this compound: CN(C)Cc1ccc(C(=O)Nc2ccc(Cl)cc2C(=O)Nc2ccc(Cl)cn2)cc1
< 4.96

Check the records and state pIC50 for O=C(Nc1ccc(Cl)cc1C(=O)Nc1ccc(Cl)cn1)c1ccc(CN2CCCCC2)cc1
< 4.96

Give the value of pIC50 reported for the following: CN(C)C1=NCCN1Cc1ccc(C(=O)Nc2ccc(Cl)cc2C(=O)Nc2ccc(Cl)cn2)cc1
< 4.96

For O=C(Nc1ccc(Cl)cc1C(=O)Nc1ccc(Cl)cn1)c1ccc(CN2CCC(C(=O)O)CC2)cc1 , write its pIC50.
< 4.96

The reported numbers originate from ChEMBL document CHEMBL1147578.
